The measured values listed here are drawn from ChEMBL document CHEMBL1131579.

Listed compounds paired with reported IC50
# Organism: Rattus norvegicus
# assay_method_text: Inhibitory activity against N-methyl-D-aspartate (NMDA)-induced cyclic GMP accumulation in rat cerebellar slices
# Assay type: functional

entry_smiles: Cc1ccc([N+](=O)[O-])c(SCCC[C@H](N)C(=O)O)c1
IC50: 37 µM
//
entry_smiles: CNC(=N)NCCC[C@H](N)C(=O)O
IC50: 3 µM
//
entry_smiles: Cc1ccc([N+](=O)[O-])c(NCCC[C@H](N)C(=O)O)c1
IC50: 33 µM
//
entry_smiles: N=C(NCCC[C@H](N)C(=O)O)N[N+](=O)[O-]
IC50: 0.2 µM

###

# subject_of_test: Nitric oxide synthase 1 (Rattus norvegicus)
# Sequence (P29476 whole entry): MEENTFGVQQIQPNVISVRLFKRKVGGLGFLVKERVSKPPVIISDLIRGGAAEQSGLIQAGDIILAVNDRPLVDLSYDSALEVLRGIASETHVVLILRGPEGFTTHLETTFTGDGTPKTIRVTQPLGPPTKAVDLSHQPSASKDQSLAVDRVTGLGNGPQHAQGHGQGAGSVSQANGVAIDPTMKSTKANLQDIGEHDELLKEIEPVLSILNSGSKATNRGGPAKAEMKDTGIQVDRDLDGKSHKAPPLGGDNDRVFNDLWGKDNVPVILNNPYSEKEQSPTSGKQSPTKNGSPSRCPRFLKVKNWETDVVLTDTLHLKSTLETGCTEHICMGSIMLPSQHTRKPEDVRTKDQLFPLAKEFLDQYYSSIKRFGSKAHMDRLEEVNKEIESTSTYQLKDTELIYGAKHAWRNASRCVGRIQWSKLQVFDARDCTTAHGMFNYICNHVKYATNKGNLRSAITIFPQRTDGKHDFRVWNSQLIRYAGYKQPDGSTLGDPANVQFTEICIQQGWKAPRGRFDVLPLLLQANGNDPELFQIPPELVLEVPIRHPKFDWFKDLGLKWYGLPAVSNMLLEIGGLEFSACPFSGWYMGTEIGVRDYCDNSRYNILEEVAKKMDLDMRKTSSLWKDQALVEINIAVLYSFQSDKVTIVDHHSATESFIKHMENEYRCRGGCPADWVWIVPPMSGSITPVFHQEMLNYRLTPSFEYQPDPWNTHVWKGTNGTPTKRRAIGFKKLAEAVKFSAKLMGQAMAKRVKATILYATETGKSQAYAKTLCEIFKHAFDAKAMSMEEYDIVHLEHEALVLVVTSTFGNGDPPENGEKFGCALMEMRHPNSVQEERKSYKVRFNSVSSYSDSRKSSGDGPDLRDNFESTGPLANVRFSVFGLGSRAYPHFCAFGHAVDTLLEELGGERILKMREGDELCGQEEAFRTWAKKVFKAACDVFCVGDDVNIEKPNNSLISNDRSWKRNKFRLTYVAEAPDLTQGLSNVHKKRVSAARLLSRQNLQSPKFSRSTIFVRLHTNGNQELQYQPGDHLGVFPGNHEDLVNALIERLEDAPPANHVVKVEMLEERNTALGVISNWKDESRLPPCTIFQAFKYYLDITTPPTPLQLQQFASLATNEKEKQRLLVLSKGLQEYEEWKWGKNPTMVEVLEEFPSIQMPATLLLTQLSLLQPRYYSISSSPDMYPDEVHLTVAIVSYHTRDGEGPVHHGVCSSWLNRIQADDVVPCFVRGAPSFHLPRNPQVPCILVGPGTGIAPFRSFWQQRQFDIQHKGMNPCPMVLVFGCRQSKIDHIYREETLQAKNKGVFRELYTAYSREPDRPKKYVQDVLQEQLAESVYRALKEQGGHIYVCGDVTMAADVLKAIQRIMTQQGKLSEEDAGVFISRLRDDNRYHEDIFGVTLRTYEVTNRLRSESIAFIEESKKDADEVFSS
# assay_method_text: Inhibition of arginine to citrulline conversion by Neuronal nitric oxide synthase from rat brain
pIC50: −log10 of the molar value.
Reported pIC50 values follow for various compounds
experimental_readout: pIC50

entry_smiles: Cc1ccc([N+](=O)[O-])c(SCCC[C@H](N)C(=O)O)c1
sign_qualifier: =
obs_value: 5.30
--
entry_smiles: Cc1ccc([N+](=O)[O-])c(NCC[C@H](N)C(=O)O)c1
sign_qualifier: <
obs_value: 4.00
--
entry_smiles: Cc1ccc([N+](=O)[O-])c(NCCC[C@H](N)CO)c1
sign_qualifier: =
obs_value: 5.52
